Source: patent US4401667A

Each entry below carries its measured MIC, system: Proteus rettgeri BC 7.
A number alone suffices; assume µg/mL.

The cases that follow already have their MIC on record.
Exercise: Field: MIC (Proteus rettgeri BC 7). Entry: CO/N=C(\C(=O)N[C@@H]1C(=O)N2C(C(=O)O)=C(COC(N)=O)CS[C@H]12)c1ccco1 [Cefuroxim, cefuroxim, reference compound]
Key: 2

Exercise: Field: MIC (Proteus rettgeri BC 7). Entry: `NS(=O)(=O)c1ccc(CNc2ncc(NC(=O)N[C@@H](C(=O)N[C@@H]3C(=O)N4C(C(=O)O)=C(CSc5nnnn5CCO)CS[C@H]34)c3ccc(O)cc3)c(O)n2)s1`
Key: 0.25

Exercise: Field: MIC (Proteus rettgeri BC 7). Entry: `NC(=O)CCn1nnnc1SCC1=C(C(=O)O)N2C(=O)[C@@H](NC(=O)[C@H](NC(=O)Nc3cnc(NCc4ccc(S(N)(=O)=O)s4)nc3O)c3ccc(O)cc3)[C@H]2SC1`
Key: 0.5

Exercise: Field: MIC (Proteus rettgeri BC 7). Entry: `CS(=O)(=O)CCn1nnnc1SCC1=C(C(=O)O)N2C(=O)[C@@H](NC(=O)[C@H](NC(=O)Nc3cnc(NCc4ccco4)nc3O)c3ccc(O)cc3)[C@H]2SC1`
Key: 1

Lab note: next molecule to report on.
Exercise: Field: MIC (Proteus rettgeri BC 7). Entry: `O=C(Nc1cnc(NCc2cccnc2)nc1O)N[C@@H](C(=O)N[C@@H]1C(=O)N2C(C(=O)O)=C(CSc3nnnn3CCO)CS[C@H]12)c1ccc(O)cc1`
Key: 0.5

----------
Each entry below carries its measured MIC, system: Klebsiella pneumoniae ATCC 10 031.
A number alone suffices; assume µg/mL.

The cases that follow already have their MIC on record.
Exercise: // lookup MIC for `O=C(Nc1cnc(NCc2cccnc2)nc1O)N[C@@H](C(=O)N[C@@H]1C(=O)N2C(C(=O)O)=C(CSc3nnnn3CCO)CS[C@H]12)c1ccc(O)cc1`
Key: 0.25

Exercise: // lookup MIC for CO/N=C(\C(=O)N[C@@H]1C(=O)N2C(C(=O)O)=C(COC(N)=O)CS[C@H]12)c1ccco1 [Cefuroxim, cefuroxim, reference compound]
Key: 2

---
Exercise: // lookup MIC for `CS(=O)(=O)CCn1nnnc1SCC1=C(C(=O)O)N2C(=O)[C@@H](NC(=O)[C@H](NC(=O)Nc3cnc(NCc4ccco4)nc3O)c3ccc(O)cc3)[C@H]2SC1`
Key: 0.25

Exercise: // lookup MIC for `NS(=O)(=O)c1ccc(CNc2ncc(NC(=O)N[C@@H](C(=O)N[C@@H]3C(=O)N4C(C(=O)O)=C(CSc5nnnn5CCO)CS[C@H]34)c3ccc(O)cc3)c(O)n2)s1`
Key: 0.12

Exercise: // lookup MIC for `NC(=O)CCn1nnnc1SCC1=C(C(=O)O)N2C(=O)[C@@H](NC(=O)[C@H](NC(=O)Nc3cnc(NCc4ccc(S(N)(=O)=O)s4)nc3O)c3ccc(O)cc3)[C@H]2SC1`
Key: 0.25
